# measured.on: unlabeled double-repeat CTD-Ser5P peptide (S. cerevisiae)
# assay.info: fluorescence polarisation
# Kd annotations

{"binder": "Nrd1_(6–151) D70R (domain or fragment) DFQNFVATLESFKDLKSGISGSRIKKLTTYALDHIDIESKIISLIIDYSRLCPDSHKLGSLYIIRSIGRAYLDETRSNSNSSSNKPGTCAHAINTLGEVIQELLSDAIAKSNQDHKEKIRMLLDIWDRSGLFQKSYLNAIRSKCFA", "Kd": "680 µM"}
{"binder": "Nrd1_(6–151) K21D (domain or fragment) DFQNFVATLESFKDLDSGISGSRIKKLTTYALDHIDIESKIISLIIDYSRLCPDSHKLGSLYIIDSIGRAYLDETRSNSNSSSNKPGTCAHAINTLGEVIQELLSDAIAKSNQDHKEKIRMLLDIWDRSGLFQKSYLNAIRSKCFA", "Kd": "95 µM"}
